- assayMethodText: Multiple escalating dose pharmacokinetic study of T-62 soft gelatin capsules (Example 12)
- Type: in vivo
- statedConditions: both sexes, human, plasma, po, 100 mg, Steady state (Day 6), 100 mg BID (oral dosage form 4), healthy adults; τ = 12 hours; arithmetic mean (SD); n = 8; read-out: AUC0-τ
parameterMeasured: AUC (ng·h/mL)
One number for each entry, in ng·h/mL.

Problem: What AUC value was documented for this compound, Nc1sc2c(c1C(=O)c1ccc(Cl)cc1)CCCC2 ?
Result: 197

====

- assayMethodText: Multiple escalating dose pharmacokinetic study of T-62 soft gelatin capsules (Example 12)
- Type: in vivo
- statedConditions: both sexes, human, plasma, po, 100 mg, Day 1, single dose 100 mg (oral dosage form 4), healthy adults; arithmetic mean (SD); n = 8
parameterMeasured: Cmax
Enter the number, and then the unit.

Problem: What Cmax value was documented for this compound, Nc1sc2c(c1C(=O)c1ccc(Cl)cc1)CCCC2 ?
Result: 28.8 ng/mL

====

- assayMethodText: Multiple escalating dose pharmacokinetic study of T-62 soft gelatin capsules (Example 12)
- Assay type: in vivo
- statedConditions: both sexes, human, plasma, po, 200 mg, Steady state (Day 6), 2 × 100 mg BID (oral dosage form 4), healthy adults; τ = 12 hours; arithmetic mean (SD); n = 9; read-out: AUC0-τ
parameterMeasured: AUC (ng·h/mL)
One number for each entry, in ng·h/mL.

Problem: What AUC value was documented for this compound, Nc1sc2c(c1C(=O)c1ccc(Cl)cc1)CCCC2 [T-62] ?
Result: 450

====

- assayMethodText: Multiple escalating dose pharmacokinetic study of T-62 soft gelatin capsules (Example 12)
- Format: in vivo
- statedConditions: both sexes, human, plasma, po, 400 mg, Day 1, single dose 4 × 100 mg (oral dosage form 4), healthy adults; τ = 12 hours; arithmetic mean (SD); n = 9; read-out: AUC0-τ
- Method: A single-center, randomized, double-blind, parallel-group, placebo-controlled study of the safety, tolerability, and pharmacokinetics of escalating multiple doses of a T-62 composition in soft gelatin capsules (oral dosage form 4) in healthy adult male and female subjects was carried out. Three cohorts of 12 subjects were enrolled for the study (19-38 years of age). Subjects in each cohort were randomly assigned in a 3:1 allocation to receive multiple doses of either T-62 (n=9) or placebo (n=3). […]
parameterMeasured: AUC (ng·h/mL)
Answers are plain numbers, in ng·h/mL.

Problem: What AUC value was documented for this molecule, Nc1sc2c(c1C(=O)c1ccc(Cl)cc1)CCCC2 [T-62] ?
Result: 399

====

- assayMethodText: Single escalating dose, age and food-effect pharmacokinetic study of T-62 soft gelatin capsules (Example 11)
- Format: in vivo
- statedConditions: human, plasma, po, 400 mg, Part B, elderly healthy subjects, fasted; single oral dose 4 × 100 mg (oral dosage form 4); arithmetic mean (SD); n = 12
- Excerpt: A single-center, 3-part study: Parts A and B were randomized, double-blind, and placebo-controlled, and evaluated the safety, tolerability, and pharmacokinetics of single, escalating dose levels of a T-62 composition in soft gelatin capsules (oral dosage form 4) in young healthy subjects (Part A), and a single dose of a T-62 composition in soft gelatin capsules (oral dosage form 4) in elderly healthy subjects (Part B). […]
parameterMeasured: Cmax (ng/mL)
Answers are plain numbers, in ng/mL.

Problem: What Cmax value was documented for this compound, Nc1sc2c(c1C(=O)c1ccc(Cl)cc1)CCCC2 ?
Result: 227
